Cited source: the supplement of paper PMC3334620

# PBM E-score per entry
# Target under test: Vhr1 (UniProt P40522)
# Sequence: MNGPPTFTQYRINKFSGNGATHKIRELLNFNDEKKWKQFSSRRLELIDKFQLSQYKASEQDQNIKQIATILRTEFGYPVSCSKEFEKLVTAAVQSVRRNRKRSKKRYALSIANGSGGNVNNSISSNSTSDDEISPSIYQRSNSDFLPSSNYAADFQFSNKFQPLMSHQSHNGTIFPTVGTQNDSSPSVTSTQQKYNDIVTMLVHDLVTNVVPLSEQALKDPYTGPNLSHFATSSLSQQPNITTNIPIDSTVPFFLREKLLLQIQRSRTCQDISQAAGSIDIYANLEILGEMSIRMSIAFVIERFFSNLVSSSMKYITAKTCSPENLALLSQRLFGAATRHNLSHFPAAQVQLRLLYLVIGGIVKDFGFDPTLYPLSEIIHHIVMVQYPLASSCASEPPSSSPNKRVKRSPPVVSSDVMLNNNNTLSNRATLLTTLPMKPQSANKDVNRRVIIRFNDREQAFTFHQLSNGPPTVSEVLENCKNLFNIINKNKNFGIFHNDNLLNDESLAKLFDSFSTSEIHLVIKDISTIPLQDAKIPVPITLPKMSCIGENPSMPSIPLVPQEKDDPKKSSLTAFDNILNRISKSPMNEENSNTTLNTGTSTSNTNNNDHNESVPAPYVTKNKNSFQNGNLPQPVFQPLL
# Procedure summary: PBM E-score (8-mer binding enrichment) (E-score (-0.5 to 0.5)); higher = stronger / more preferred TF binding
# Condition info: protein concentration: 200 nM; construct: GST-full length
In all, about 33,000 sequences were measured (“E-score (-0.5 to 0.5)”: median about -0.012, highest 2% from about 0.27 on). The full list was thinned out, with the highest values kept by preference.
Parameter measured: PBM E-score

    sequence_chain  parameter_measured  value_measured
 0        CCAAATCG         PBM E-score          -0.166
 1        AAAATCTT         PBM E-score          -0.316
 2        AAGTCATT         PBM E-score         -0.0196
 3        CGAGTCCG         PBM E-score           0.286
 4        CCGTCATC         PBM E-score         -0.0774
 5        GAATTTCC         PBM E-score         -0.0327
 6        CTCACTCA         PBM E-score          0.0981
 7        CAGTCATC         PBM E-score           0.419
 8        GTCACTCA         PBM E-score           0.325
 9        ATTATACA         PBM E-score         0.00881
10        GGAGTCCA         PBM E-score           0.163
11        AAGTCATG         PBM E-score            0.41
12        CGGTCATC         PBM E-score           0.124
13        ATCCATAC         PBM E-score          0.0581
14        CGAGTCCA         PBM E-score         -0.0942
15        CCTTGCGA         PBM E-score         -0.0209
16        GTCACGCA         PBM E-score          0.0821
17        ATTATACG         PBM E-score           0.303
18        CCCGCTAG         PBM E-score          -0.249
19        AAGTCATC         PBM E-score           0.323
20        ATCGCCTA         PBM E-score          0.0387
21        GGGCTTCA         PBM E-score        -0.00484
22        ATCACTCA         PBM E-score           0.234
23        GTCACACA         PBM E-score           0.303
24        CTCACATA         PBM E-score           0.186
25        TGAGTCAA         PBM E-score           0.419
26        ACGATAAT         PBM E-score          0.0207
27        AGGTCATG         PBM E-score           0.136
28        GTCACAGA         PBM E-score           0.157
29        CGGCAGCA         PBM E-score         -0.0628
30        TTAGTCAA         PBM E-score           0.168
31        ATGTCATC         PBM E-score          0.0412
32        AGAGTCCG         PBM E-score         -0.0962
33        GTCACAAA         PBM E-score         -0.0213
34        CTCACGCC         PBM E-score           0.239
35        AAGTCAAG         PBM E-score          -0.156
36        ACAAATCG         PBM E-score          0.0133
37        ATAGATGC         PBM E-score         -0.0668
38        ACTATCTA         PBM E-score           0.184
39        CGGCACGC         PBM E-score         -0.0534
40        GCTTGCGA         PBM E-score           0.295
41        GTCTTCAC         PBM E-score          -0.058
42        ATTTACAA         PBM E-score          -0.101
43        CGGGTGAC         PBM E-score           0.143
44        ACCTTCTG         PBM E-score           0.167
45        ACTTGCGA         PBM E-score          0.0242
